Recorded values, source ChEMBL document CHEMBL1154710.

# System: HEp-2
# Procedure text: Growth inhibition of human Hep2 cells at 10 uM after 48 hrs by SRB assay
# Format: functional
# Protocol conditions: HEp-2, 48 h, read-out: GI
# label = Fulfilled if inhibition of growth at 10 µM >= 50% else Not fulfilled

Consider the following illustrative entries.
{"columns": ["Compound", "Qualitative label"],
 "data": [
  ["COc1cccc2c1C(=O)c1c(O)c3c(c(O)c1C2=O)C[C@@](O)(C(=O)CO)C[C@@H]3O[C@H]1C[C@H](N)[C@H](O)[C@H](C)O1", "Fulfilled"],
  ["COc1ccc2nc3ccccc3c(NC(=S)NCc3ccco3)c2c1", "Not fulfilled"]
]}

[in] Hello, I need to know if Cc1cccc2c(NCC3CCCO3)c3ccccc3nc12 (racemic) has measured inhibition of growth at 10 µM not below 50%. Thanks!
[out] Not fulfilled

[in] Follow-up entry: `COc1ccc2nc3ccccc3c(NC(=S)NCCc3cccs3)c2c1`
[out] Not fulfilled

* * *

Items are presented alongside their recorded inhibition of growth at 10 µM.
# Tested on: HEp-2
# Procedure text: Growth inhibition of human Hep2 cells at 10 uM after 48 hrs by SRB assay
# Type: functional
# Protocol conditions: HEp-2, 48 h, read-out: GI
Your answer should be a plain number; it is taken to be in %.

{"columns": ["Compound", "U", "Numeric result"],
 "data": [
  ["Cc1cccc2c(NC(=S)NCc3ccco3)c3ccccc3nc12", "%", 61]
]}

[in] Give the measured inhibition of growth at 10 µM of COc1ccc2nc3ccccc3c(NCC3CCCO3)c2c1 (racemic) .
[out] 11

[in] Follow-up entry: Cc1cccc2c(NC(=S)NCC3CCCO3)c3ccccc3nc12 (racemic)
[out] 14

[in] Follow-up entry: `Cc1cccc2c(NCCc3c[nH]c4ccccc34)c3ccccc3nc12`
[out] 23

[in] Follow-up entry: `COc1cccc2c(NCc3ccco3)c3ccccc3nc12`
[out] 54

[in] Follow-up entry: CO[C@@]12[C@H](COC(N)=O)C3=C(C(=O)C(C)=C(N)C3=O)N1C[C@@H]1N[C@@H]12 [MITOMYCIN]
[out] 58

[in] Follow-up entry: `COc1ccc2nc3ccccc3c(NCCc3cccs3)c2c1`
[out] 52

[in] Follow-up entry: O=c1[nH]cc(F)c(=O)[nH]1 [FLUOROURACIL]
[out] 29

[in] Follow-up entry: `COc1ccc2nc3ccccc3c(NCc3ccco3)c2c1`
[out] 56

* * *

# System: A549
# Procedure text: Growth inhibition of human A549 cells at 10 uM after 48 hrs by SRB assay
# Format: functional
# Protocol conditions: A549, 48 h, read-out: GI
Items are presented alongside their recorded inhibition of growth at 10 µM.
Your answer should be a plain number; it is taken to be in %.

{"columns": ["Smiles structure", "Measurement target", "U", "Numeric result"],
 "data": [
  ["Cc1cccc2c(NCc3ccco3)c3ccccc3nc12", "A549", "%", 52]
]}

[in] Give the measured inhibition of growth at 10 µM of `COc1ccc2nc3ccccc3c(NC(=S)NCc3ccco3)c2c1` .
[out] 37

[in] Follow-up entry: `Cc1cccc2c(NC(=S)NCCc3c[nH]c4ccccc34)c3ccccc3nc12`
[out] 84

[in] Follow-up entry: `COc1cccc2c(NCc3ccco3)c3ccccc3nc12`
[out] 36
